# Test system: HepG2
# Procedure Details: cytotoxicity call (relative viability < 0.9)
# Applied Conditions: 10 µM
Screen size: about 39,000 compounds; about 3,300 (8.5%) were called active. The sample as a whole holds a higher share of actives than the screen did.

{"Molecule": "C[C@@H]1CCCCO[C@H](CN(C)C(=O)NC2CCCCC2)[C@@H](C)CN([C@@H](C)CO)C(=O)c2cc(NC(=O)c3ccncc3)ccc2O1", "cytotoxicity call": "inactive"}
{"Molecule": "CO[C@H]1O[C@H](CO)[C@@H](OC(=O)Nc2ccccc2-c2ccccc2)[C@H](OC(=O)Nc2ccccc2-c2ccccc2)[C@@H]1OC(=O)Nc1ccccc1-c1ccccc1", "cytotoxicity call": "inactive"}
{"Molecule": "O=C(C[C@@H]1CC=CCCC(=O)OC[C@H](Cc2c[nH]c3ccccc23)NC1=O)N[C@@H](CO)Cc1ccccc1", "cytotoxicity call": "inactive"}
{"Molecule": "C[C@H]1CCCCO[C@H](CN(C)C(=O)NC2CCCCC2)[C@@H](C)CN([C@@H](C)CO)C(=O)c2cc(NC(=O)c3ccccc3)ccc2O1", "cytotoxicity call": "inactive"}
{"Molecule": "C[C@@H]1CN([C@H](C)CO)C(=O)Cc2cc(NC(=O)Cc3cn(C)c4ccccc34)ccc2O[C@H]1CN(C)Cc1ccc(-c2ccccc2)cc1", "cytotoxicity call": "active"}
{"Molecule": "C[C@H](CO)N1C[C@H](C)[C@@H](CN(C)Cc2ccc(-c3ccccc3)cc2)Oc2ccc(NC(=O)Cc3cn(C)c4ccccc34)cc2CC1=O", "cytotoxicity call": "inactive"}
{"Molecule": "O=C(C[C@@H]1CC=CCC[C@H](Cc2ccc(F)cc2)C(=O)OC[C@H](Cc2c[nH]c3ccccc23)NC1=O)N[C@@H](CO)Cc1ccccc1", "cytotoxicity call": "inactive"}
{"Molecule": "C[C@@H]1CN([C@@H](C)CO)C(=O)c2cc(NC(=O)c3ccncc3)ccc2O[C@@H](C)CCCCO[C@@H]1CN(C)C(=O)NC1CCCCC1", "cytotoxicity call": "active"}
{"Molecule": "C[C@@H]1CCCCO[C@H](CN(C)C(=O)NC2CCCCC2)[C@@H](C)CN([C@H](C)CO)C(=O)c2cc(NC(=O)c3ccccc3)ccc2O1", "cytotoxicity call": "inactive"}
{"Molecule": "C[C@@H]1CN([C@H](C)CO)C(=O)Cc2cc(NC(=O)Cc3cn(C)c4ccccc34)ccc2O[C@@H]1CN(C)CC1CCCCC1", "cytotoxicity call": "inactive"}
{"Molecule": "C[C@@H]1CN([C@H](C)CO)C(=O)Cc2cc(NC(=O)Cc3cn(C)c4ccccc34)ccc2O[C@@H]1CN(C)Cc1ccc(C(=O)Nc2ccccc2N)cc1", "cytotoxicity call": "inactive"}
{"Molecule": "COc1ccc(NC(=O)O[C@H]2[C@H](OC(=O)Nc3ccccc3-c3ccccc3)[C@H](OC(=O)Nc3ccccc3-c3ccccc3)[C@@H](OC)O[C@@H]2CO)cc1", "cytotoxicity call": "inactive"}
{"Molecule": "COc1ccc(NC(=O)Nc2ccc3c(c2)C(=O)N([C@@H](C)CO)C[C@@H](C)[C@@H](CN(C)S(=O)(=O)c2ccc(C)cc2)OCCCC[C@H](C)O3)cc1", "cytotoxicity call": "inactive"}
{"Molecule": "O=C(C[C@@H]1CC=CCCC(=O)OC[C@@H](Cc2c[nH]c3ccccc23)NC1=O)N[C@@H](CO)Cc1ccccc1", "cytotoxicity call": "inactive"}
{"Molecule": "C[C@H](CO)N1C[C@H](C)[C@H](CN(C)Cc2ccc(-c3ccccc3)cc2)Oc2ccc(NC(=O)Cc3cn(C)c4ccccc34)cc2CC1=O", "cytotoxicity call": "inactive"}
{"Molecule": "C[C@@H]1COC(=O)[C@@H](Cc2ccc(F)cc2)CCC=CC[C@@H](CC(=O)N[C@H](CO)Cc2ccccc2)C(=O)N1", "cytotoxicity call": "inactive"}
{"Molecule": "O=C(C[C@@H]1CC=CCCC(=O)OC[C@@H](Cc2c[nH]c3ccccc23)NC1=O)N[C@H](CO)Cc1ccccc1", "cytotoxicity call": "inactive"}
{"Molecule": "CCc1cccc(NC(=O)O[C@H]2[C@H](OC(=O)Nc3ccccc3-c3ccccc3)[C@H](OC(=O)Nc3ccccc3-c3ccccc3)[C@@H](OC)O[C@@H]2CO)c1", "cytotoxicity call": "inactive"}
{"Molecule": "O=C(C[C@@H]1CC=CCCC(=O)OC[C@H](Cc2c[nH]c3ccccc23)NC1=O)N[C@H](CO)Cc1ccccc1", "cytotoxicity call": "inactive"}
{"Molecule": "Cc1noc(C)c1NC(=O)N(C)C[C@H]1OCCCC[C@H](C)Oc2ccc(NS(=O)(=O)c3cccs3)cc2C(=O)N([C@H](C)CO)C[C@@H]1C", "cytotoxicity call": "inactive"}
{"Molecule": "O=C(C[C@@H]1CC=CCC[C@H](Cc2ccc(F)cc2)C(=O)OC[C@@H](Cc2c[nH]c3ccccc23)NC1=O)N[C@@H](CO)Cc1ccccc1", "cytotoxicity call": "inactive"}
{"Molecule": "C[C@@H]1CCCCO[C@@H](CN(C)C(=O)NC2CCCCC2)[C@@H](C)CN([C@H](C)CO)C(=O)c2cc(NC(=O)c3ccncc3)ccc2O1", "cytotoxicity call": "inactive"}
{"Molecule": "O=C(C[C@@H]1CC=CCC[C@@H](Cc2ccc(F)cc2)C(=O)OC[C@@H](Cc2c[nH]c3ccccc23)NC1=O)N[C@H](CO)Cc1ccccc1", "cytotoxicity call": "active"}
{"Molecule": "O=C(C[C@@H]1CC=CCC[C@@H](Cc2ccc(F)cc2)C(=O)OC[C@H](Cc2c[nH]c3ccccc23)NC1=O)N[C@@H](CO)Cc1ccccc1", "cytotoxicity call": "active"}
{"Molecule": "C[C@@H]1CCCCO[C@H](CN(C)S(=O)(=O)c2ccc(F)cc2)[C@@H](C)CN([C@@H](C)CO)C(=O)c2cc(NC(=O)Nc3cccc4ccccc34)ccc2O1", "cytotoxicity call": "inactive"}
{"Molecule": "Cc1cc(=O)[n+]2cccc(O)c2[nH]1", "cytotoxicity call": "inactive"}
